target: CYP2D6 (Homo sapiens, UniProt P10635); experiment: Inhibition of CYP2D6 (unknown origin) at 10 uM relative to control; format: ADME
Sequence (P10635 whole entry): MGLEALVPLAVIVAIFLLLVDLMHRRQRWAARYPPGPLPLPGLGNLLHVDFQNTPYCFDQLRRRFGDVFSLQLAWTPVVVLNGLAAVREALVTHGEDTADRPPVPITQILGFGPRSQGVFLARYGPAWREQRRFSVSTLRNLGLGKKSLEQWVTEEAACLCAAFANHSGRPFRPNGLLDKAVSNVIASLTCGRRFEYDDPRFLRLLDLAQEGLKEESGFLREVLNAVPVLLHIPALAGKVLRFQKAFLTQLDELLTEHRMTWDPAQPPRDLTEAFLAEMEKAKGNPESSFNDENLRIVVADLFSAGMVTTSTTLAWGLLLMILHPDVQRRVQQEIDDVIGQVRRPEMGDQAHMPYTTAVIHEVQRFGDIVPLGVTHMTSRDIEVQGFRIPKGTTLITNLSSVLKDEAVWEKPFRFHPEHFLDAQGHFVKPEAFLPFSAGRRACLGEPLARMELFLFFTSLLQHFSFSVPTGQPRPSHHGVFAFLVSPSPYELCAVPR
quantity.name: inhibition at 10 µM (%)

Consider the worked cases shown below.
The compound CN(C)c1ccnc2sc(C(N)=O)c(N)c12 on CYP2D6 (Homo sapiens, UniProt P10635): inhibition at 10 µM was 1

Assay CYP2D6 (Homo sapiens, UniProt P10635), sample NC(=O)c1sc2nccc(N3CCCN(c4ccccc4)CC3)c2c1N , inhibition at 10 µM read: 34

(A) NC(=O)c1sc2nccc(OC3CCOCC3)c2c1N
(B) Cc1cc(Oc2ccc(CCCC(=O)N(C)C)cc2F)c2c(N)c(C(N)=O)sc2n1
(C) NC(=O)c1sc2nccc(Oc3ccccc3)c2c1N
(D) NC(=O)c1sc2nccc(Oc3ccc(CCO)cc3)c2c1N
Ask | I would appreciate it if you could sort these 4 compounds by inhibition at 10 µM, starting from the smallest number. Use the labels to give the requested order.
Reply | A, D, C, B
